- Target Of Assay: H. Influenzae ligase (D-Ala-D-Ala ligase) (Haemophilus influenzae, UniProt P44405)
- Sequence (P44405 whole entry): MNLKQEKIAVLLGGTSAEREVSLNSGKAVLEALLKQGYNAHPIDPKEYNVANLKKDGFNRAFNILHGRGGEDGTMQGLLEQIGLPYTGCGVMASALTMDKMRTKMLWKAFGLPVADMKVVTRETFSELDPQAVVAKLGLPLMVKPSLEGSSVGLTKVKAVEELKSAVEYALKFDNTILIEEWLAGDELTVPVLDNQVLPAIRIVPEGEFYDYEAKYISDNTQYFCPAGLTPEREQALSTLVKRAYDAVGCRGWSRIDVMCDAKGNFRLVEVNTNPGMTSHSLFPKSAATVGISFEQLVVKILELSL
- Test Summary: D-Ala-D-Ala ligase Ki determination (PK/LDH coupled assay), H. influenzae ligase
- Type: biochemical
- Condition Context: Table 3; Ki/ATP, avg; read-out: H. Influenzae ligase Ki/ATP (uM) avg
- From the text: Inhibition of D-Ala-D-Ala ligase can be assayed for using the pyruvate kinase/lactate dehydrogenase (PK/LDH) assay described in Example 2, and as described in the literature (e.g., in Sarthy et al., Anal. Biochem., 254:288-290, 1997). […] The protein sequence for the enzyme D-ala-D-ala ligase has been determined in a variety of different bacterial species using standard techniques in biochemistry (see Table 5). […]
One threshold, 0.6 µM, splits the recorded Ki values: lower ones are 1 (yes), equal or higher ones are 0 (no).

Query: Strictly below 0.6 µM in Ki? `CCOc1ccc2ccccc2c1CN(CCC(=O)NCc1ccc(N)cc1)c1ncc2c(N)nc(N)nc2n1`
Response: 0 (no)

Query: What would you report for `CCOc1ccc2ccccc2c1CN(CCC(=O)N1CCOCC1)c1ncc2c(N)nc(N)nc2n1` ?
Response: 0 (no)

Query: Now the same for `CCOc1ccc2ccccc2c1CN(CCC(=O)NCc1ccccn1)c1ncc2c(N)nc(N)nc2n1`
Response: 1 (yes)

Query: Moving on to the next compound: `CCOc1ccc2ccccc2c1CN(CCC(=O)NCCN)c1ncc2c(N)nc(N)nc2n1`
Response: 0 (no)

Query: And the next one, `CCOc1ccc2ccccc2c1CN(CCC(=O)NCc1cccc(CN)c1)c1ncc2c(N)nc(N)nc2n1` ?
Response: 1 (yes)
